// LC50 at 24 h lookup, one value per entry
# Experiment summary: Larval settlement bioassay, barnacle Balanus amphitrite cyprids
# Type: in vivo
# Condition set: Balanus amphitrite (barnacle), cyprid larvae, in vivo, other: immersion, sample added to the seawater in the well, Balanus amphitrite; highest concentration examined causing <50% death of larvae
Readout: LC50 at 24 h

>>> print(df.to_string())
                                   molecule   meas_value
0  CC(CCCCCC1C=CC(=O)O1)C(C)OC1CCCCO1 (stereo not drawn)   > 80 µg/mL
1  CCC(C)(O)CCCCCC1C=CC(=O)O1 (stereo not drawn)  > 100 µg/mL
2  CC(O)C(C)CCCCCC1C=CC(=O)O1 (stereo not drawn)  > 100 µg/mL
3   CCCCCCCCC1C=CC(=O)O1 (stereo not drawn)   > 50 µg/mL
4  CC(C)(O)CCCCCC1C=CC(=O)O1 (stereo not drawn)  > 140 µg/mL
5  CC(=O)C(C)CCCCCC1C=CC(=O)O1 (stereo not drawn)  > 100 µg/mL

====

# System: Balanus amphitrite larvae
# Experiment summary: Larval settlement bioassay, barnacle Balanus amphitrite cyprids
# Type: in vivo
# Condition set: Table 3; Balanus amphitrite larvae
Readout: LC50

>>> df
                                   molecule  meas_value
0  CC(O)C(C)(O)CCCC1C=CC(=O)O1 (stereo not shown) [Compound 9]  >100 µg/mL
1  CC(O)C(C)(O)CCCC1C=CC(=O)O1 (stereo not shown) [Compound 10]  >100 µg/mL
2  CC(O)C(C)(O)CCCC1C=CC(=O)O1 (stereo not shown) [Compound 8]  >100 µg/mL
3  CC(O)C(C)(O)CCCC1C=CC(=O)O1 (stereo not shown) [Compound 7]   >25 µg/mL

====

# Experiment summary: Larval settlement bioassay, barnacle Balanus amphitrite cyprids
# Type: in vivo
# Condition set: Balanus amphitrite (barnacle), cyprid larvae, in vivo, other: immersion, sample added to the seawater in the well, Table 3; Balanus amphitrite larvae
# Method: The nauplii were reared in freshly filtered nature seawater (FSW, 0.45 μm, 32 S salinity) and fed with Chaetoceros gracilis Schutt at 24° C. in the Coastal Marine Laboratory the Hong Kong University of Science and Technology (HKUST). Cyprids were stored for 2 days at 8° C. (aged cyprids) prior to being used in the bioassays. Ten μl of each test sample dissolved in dimethyl sulfoxide (DMSO) were transferred into a well in 24-well polystyrene plate after the addition of 1 ml of FSW. […]
// LC50 at 24 h lookup, one value per entry
Readout: LC50 at 24 h

                                   molecule   meas_value
0  CC(CCCCCC1C=CC(=O)O1)C(C)OC1CCCCO1 (stereo not shown) [Compound 5]   > 80 µg/mL
1  CCC(C)(O)CCCCCC1C=CC(=O)O1 (stereo not shown) [Compound 1]  > 100 µg/mL
2  CCCCCCCCC1C=CC(=O)O1 (stereo not shown) [Compound 6, 5-octylfuran-2-one]   > 50 µg/mL
3  CC(=O)C(C)CCCCCC1C=CC(=O)O1 (stereo not shown) [Compound 3]  > 100 µg/mL
4  CC(C)(O)CCCCCC1C=CC(=O)O1 (stereo not shown) [Compound 4]  > 140 µg/mL
5  CC(O)C(C)CCCCCC1C=CC(=O)O1 (stereo not shown) [Compound 2]  > 100 µg/mL
6  CC(O)C(C)(O)CCCC1C=CC(=O)O1 (single isomer, unassigned) [Compound 11]  > 100 µg/mL

====

# System: Balanus amphitrite larvae
# Experiment summary: Larval settlement bioassay, barnacle Balanus amphitrite cyprids
# Type: in vivo
# Condition set: Amphibalanus amphitrite, Table 3; Balanus amphitrite larvae; value ± spread; read-out: EC50
Readout: EC50 (µg/mL)

In [3]: df
Out[3]:
                                   compound  readout  value_comparator  meas_value
0  CC(C)(O)CCCCCC1C=CC(=O)O1 (stereo not shown)     EC50                 >         100
1  CC(=O)C(C)CCCCCC1C=CC(=O)O1 (stereo not shown)     EC50                 =        8.67
2  CC(O)C(C)CCCCCC1C=CC(=O)O1 (stereo not shown)     EC50                 =        9.65
3   CCCCCCCCC1C=CC(=O)O1 (stereo not shown)     EC50                 =        0.52
4  CC(CCCCCC1C=CC(=O)O1)C(C)OC1CCCCO1 (stereo not shown)     EC50                 =         3.6
5  CCC(C)(O)CCCCCC1C=CC(=O)O1 (stereo not shown)     EC50                 =        14.8
6  CC(O)C(C)(O)CCCC1C=CC(=O)O1 (single isomer, unassigned)     EC50                 >         100

====

# Experiment summary: in vivo
# Condition set: Bugula neritina, larvae
Readout: LC50

In [3]: df
Out[3]:
                                  compound  meas_value
0  CCCCCCCCC1C=CC(=O)O1 (stereo not shown)  > 50 µg/mL

====

# Test system: Hydroides elegans larvae
# Experiment summary: Larval settlement bioassay, Hydroides elegans competent larvae
# Type: in vivo
# Condition set: H. elegans; compared with controls
// concentration at which significant inhibition of larval settlement was observed lookup, one value per entry
Readout: concentration at which significant inhibition of larval settlement was observed (µg/mL)

In [3]: df
Out[3]:
                                   compound  meas_value
0  CC(O)C(C)CCCCCC1C=CC(=O)O1 (stereo not shown)           5
1  CC(C)(O)CCCCCC1C=CC(=O)O1 (stereo not shown)           8
2  CCC(C)(O)CCCCCC1C=CC(=O)O1 (stereo not shown)          10
3  CC(=O)C(C)CCCCCC1C=CC(=O)O1 (stereo not shown)           5

====

// LC50 at 24 h lookup, one value per entry
# Experiment summary: Larval settlement bioassay, Hydroides elegans competent larvae
# Assay type: in vivo
# Condition set: competent larvae, in vivo, other: immersion, sample added to the seawater in the well; Hydroides elegans; highest concentration examined causing <50% death of larvae
Readout: LC50 at 24 h

>>> df
                                   molecule   meas_value
0  CC(=O)C(C)CCCCCC1C=CC(=O)O1 (stereo not drawn)  > 100 µg/mL
1   CCCCCCCCC1C=CC(=O)O1 (stereo not drawn)    > 2 µg/mL
2  CC(CCCCCC1C=CC(=O)O1)C(C)OC1CCCCO1 (stereo not drawn)  > 100 µg/mL
3  CC(C)(O)CCCCCC1C=CC(=O)O1 (stereo not drawn)   > 40 µg/mL
4  CCC(C)(O)CCCCCC1C=CC(=O)O1 (stereo not drawn)  > 100 µg/mL
5  CC(O)C(C)CCCCCC1C=CC(=O)O1 (stereo not drawn)  > 100 µg/mL
